- MEASURED ON: T1, human LAG-3 on cells (HEK293-hLAG-3 stable cell line) (human, UniProt P18627 23-525)
- T1 sequence: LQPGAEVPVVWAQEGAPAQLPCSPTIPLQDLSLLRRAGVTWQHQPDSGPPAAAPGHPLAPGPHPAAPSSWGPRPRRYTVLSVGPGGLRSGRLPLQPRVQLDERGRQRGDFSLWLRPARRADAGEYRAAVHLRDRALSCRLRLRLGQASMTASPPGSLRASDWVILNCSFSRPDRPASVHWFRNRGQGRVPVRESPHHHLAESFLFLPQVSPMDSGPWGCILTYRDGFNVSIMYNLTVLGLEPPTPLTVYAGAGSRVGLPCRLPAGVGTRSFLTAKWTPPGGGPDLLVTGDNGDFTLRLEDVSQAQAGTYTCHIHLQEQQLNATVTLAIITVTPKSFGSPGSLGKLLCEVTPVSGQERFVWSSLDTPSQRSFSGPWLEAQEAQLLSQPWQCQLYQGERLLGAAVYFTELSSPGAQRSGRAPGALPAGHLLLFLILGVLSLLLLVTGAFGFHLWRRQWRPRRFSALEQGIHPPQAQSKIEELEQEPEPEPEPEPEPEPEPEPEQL
- PROTOCOL: FACS, HEK293-hLAG-3, antibody 0.32 nM
VALUE KIND: Mean fluorescence intensity
Format: numeric value only, no unit, no commentary.

May I ask what Mean fluorescence intensity has been recorded for 556F6B8-8 humanized antibody (antibody, V domains shown) VH: RVQLQESGPGLVKPSETLSLTCTVSGFSLIKYGVHWIRQPPGKGLEWIGVIWRGGITDYNAAFMSRVTISKDTSKSQVSLKLSSVTAADTAVYYCAKWDGPLAMDYWGQGTTVTVSS VL: DIVLTQSPSFLSASVGDRVTITCKASQDVGTTVAWYQQKPGKAPKLLIYWASTRHTGVPSRFSGSGSGTEFTLTISSLQPEDFATYYCQQYSSYPYTFGQGTKLEIK ?
36

Requested field: Mean fluorescence intensity. Item: 556F6B8-1 humanized antibody (antibody, V domains shown) VH: QVQLQESGPGLVKPSETLSLTCTVSGGSISKYGVHWIRQPPGKGLEWIGVIWRGGITDYNAAFMSRVTISVDTSKNQFSLKLSSVTAADTAVYYCARWDGPLAMDYWGQGTTVTVSS VL: DIQLTQSPSFLSASVGDRVTITCKASQDVGTTVAWYQQKPGKAPKLLIYWASTRHTGVPSRFSGSGSGTEFTLTISSLQPEDFATYYCQQYSSYPYTFGQGTKLEIK
5

Looking for the measured Mean fluorescence intensity of 556F6B8-7 humanized antibody (antibody, V domains shown) VH: QVQLQESGPGLVKPSETLSLTCTVSGFSLIKYGVHWIRQPPGKGLEWIGVIWRGGITDYNAAFMSRVTISKDTSKSQVSLKLSSVTAADTAVYYCARWDGPLAMDYWGQGTTVTVSS VL: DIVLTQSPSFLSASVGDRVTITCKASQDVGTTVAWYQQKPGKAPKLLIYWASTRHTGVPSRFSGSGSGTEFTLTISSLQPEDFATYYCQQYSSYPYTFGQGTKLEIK , can you help?
44

The values you see were collected from patent US20210155689A1.
